Where do the numbers come from? From ChEMBL document CHEMBL1212838.

Sequence of the target: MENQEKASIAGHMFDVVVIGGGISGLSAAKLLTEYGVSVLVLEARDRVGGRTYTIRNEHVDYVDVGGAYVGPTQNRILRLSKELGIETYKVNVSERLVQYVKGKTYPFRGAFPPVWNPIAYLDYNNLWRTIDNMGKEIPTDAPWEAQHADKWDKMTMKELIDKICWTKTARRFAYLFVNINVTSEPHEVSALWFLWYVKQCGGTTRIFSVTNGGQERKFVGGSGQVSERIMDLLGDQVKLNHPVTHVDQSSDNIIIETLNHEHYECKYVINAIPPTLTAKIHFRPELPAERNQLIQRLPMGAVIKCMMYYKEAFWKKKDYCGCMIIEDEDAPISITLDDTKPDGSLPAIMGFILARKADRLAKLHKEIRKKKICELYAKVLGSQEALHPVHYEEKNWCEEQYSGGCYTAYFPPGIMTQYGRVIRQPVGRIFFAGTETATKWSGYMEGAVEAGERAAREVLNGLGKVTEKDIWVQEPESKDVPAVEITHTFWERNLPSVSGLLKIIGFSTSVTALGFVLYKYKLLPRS
I'd appreciate it if you could supply IC50 values for the items below.
Use nM as the unit, but write only the number.

Qu. Indicate its recorded IC50; the compound in question is COc1cccc(-c2csc(N/N=C(\C)c3cccnc3)n2)c1
Ans. 455

Qu. Indicate its recorded IC50; the compound in question is COc1cccc(-c2csc(N/N=C/c3c[nH]c4ccccc34)n2)c1
Ans. 414

Qu. Indicate its recorded IC50; the compound in question is COc1cccc(-c2csc(NN=C3CCC(C)CC3)n2)c1 (centres undefined)
Ans. 749

Qu. Indicate its recorded IC50; the compound in question is COc1cccc(-c2csc(N/N=C(\C)c3ccncc3)n2)c1
Ans. 3710

###

reported.metric: IC50 (nM)
Use nM as the unit, but write only the number.

Qu. Consider the compound COc1cccc(-c2csc(N/N=C(\C)c3ccncc3)n2)c1 tested on Amine oxidase [flavin-containing] B (Homo sapiens); state its IC50.
Sequence (P27338 whole entry): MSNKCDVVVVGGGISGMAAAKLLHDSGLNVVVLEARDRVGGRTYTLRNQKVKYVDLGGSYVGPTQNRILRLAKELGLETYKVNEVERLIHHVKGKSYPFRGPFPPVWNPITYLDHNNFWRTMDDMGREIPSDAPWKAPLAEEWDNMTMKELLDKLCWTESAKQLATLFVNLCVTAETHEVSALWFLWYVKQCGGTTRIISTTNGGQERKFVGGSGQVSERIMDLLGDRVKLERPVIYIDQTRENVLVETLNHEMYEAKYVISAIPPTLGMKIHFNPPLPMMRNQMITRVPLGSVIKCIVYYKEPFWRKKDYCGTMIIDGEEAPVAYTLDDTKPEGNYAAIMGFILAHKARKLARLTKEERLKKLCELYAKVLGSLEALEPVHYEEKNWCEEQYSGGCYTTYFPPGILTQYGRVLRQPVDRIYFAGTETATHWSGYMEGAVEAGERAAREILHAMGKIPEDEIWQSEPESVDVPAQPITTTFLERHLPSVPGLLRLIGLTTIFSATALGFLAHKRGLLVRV
Ans. 116

Qu. Consider the compound CCC(CC)=NNc1nc(-c2cccc(OC)c2)cs1 tested on Amine oxidase [flavin-containing] B (Homo sapiens); state its IC50.
Ans. 772

Qu. Consider the compound COc1cccc(-c2csc(NN=C3CCC(C)CC3)n2)c1 (configuration not stated) tested on Amine oxidase [flavin-containing] B (Homo sapiens); state its IC50.
Ans. 35.5

Qu. Consider the compound COc1cccc(-c2csc(N/N=C3\CCC(C)C3)n2)c1 (configuration not stated) tested on Amine oxidase [flavin-containing] B (Homo sapiens); state its IC50.
Ans. 231

Qu. Consider the compound COc1cccc(-c2csc(NN=C3CCCCC3)n2)c1 tested on Amine oxidase [flavin-containing] B (Homo sapiens); state its IC50.
Ans. 31.9

Qu. Consider the compound COc1cccc(-c2csc(N/N=C(\C)c3ccco3)n2)c1 tested on Amine oxidase [flavin-containing] B (Homo sapiens); state its IC50.
Ans. 1680

Qu. Consider the compound COc1cccc(-c2csc(N/N=C3\CCCCC3C)n2)c1 (configuration not stated) tested on Amine oxidase [flavin-containing] B (Homo sapiens); state its IC50.
Ans. 12.2

Qu. Consider the compound COc1cccc(-c2csc(NN=C(C)C)n2)c1 tested on Amine oxidase [flavin-containing] B (Homo sapiens); state its IC50.
Ans. 5070

Qu. Consider the compound COc1cccc(-c2csc(N/N=C3\CCCC3C)n2)c1 (configuration not stated) tested on Amine oxidase [flavin-containing] B (Homo sapiens); state its IC50.
Ans. 26.6

Qu. Consider the compound CCCCC/C(C)=N/Nc1nc(-c2cccc(OC)c2)cs1 tested on Amine oxidase [flavin-containing] B (Homo sapiens); state its IC50.
Ans. 6720

Qu. Consider the compound COc1cccc(-c2csc(N/N=C(\C)c3cccs3)n2)c1 tested on Amine oxidase [flavin-containing] B (Homo sapiens); state its IC50.
Ans. 551

Qu. Consider the compound COc1cccc(-c2csc(N/N=C/c3ccco3)n2)c1 tested on Amine oxidase [flavin-containing] B (Homo sapiens); state its IC50.
Ans. 6780

###

assayed.target: Amine oxidase [flavin-containing] A (Homo sapiens, UniProt P21397)
We label by threshold. Values of IC50 strictly beneath 0.7 µM are satisfied. Values of 0.7 µM and up are not satisfied.

Qu. Dear reviewer, please state whether COc1cccc(-c2csc(N/N=C/c3ccco3)n2)c1 has IC50 strictly beneath 0.7 µM.
Ans. satisfied

Qu. Dear reviewer, please state whether COc1cccc(-c2csc(N/N=C(\C)c3cc4ccccc4oc3=O)n2)c1 has IC50 strictly beneath 0.7 µM.
Ans. not satisfied

Qu. Dear reviewer, please state whether COc1cccc(-c2csc(N/N=C/c3cccs3)n2)c1 has IC50 strictly beneath 0.7 µM.
Ans. satisfied

Qu. Dear reviewer, please state whether COc1cccc(-c2csc(N/N=C3\CCCC3C)n2)c1 (stereo unspecified) has IC50 strictly beneath 0.7 µM.
Ans. not satisfied

Qu. Dear reviewer, please state whether COc1cccc(-c2csc(N/N=C3\CCC(C)C3)n2)c1 (stereo unspecified) has IC50 strictly beneath 0.7 µM.
Ans. not satisfied
